Biological target: T1, FZD4 CRD (Homo sapiens, UniProt Q9ULV1)
T1 construct: E42-V167; GPI anchor signal (C); expressed in transfected cells; host or cells: CHO cells, lentiviral pLenti-puro
T1 sequence (Q9ULV1 42-167): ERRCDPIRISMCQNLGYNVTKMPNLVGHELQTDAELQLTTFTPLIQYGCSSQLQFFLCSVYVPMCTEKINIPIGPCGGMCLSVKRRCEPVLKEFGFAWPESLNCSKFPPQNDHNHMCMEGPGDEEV
Assay: Immunofluorescence of anti-FZD5 Fab binding to CHO cells overexpressing Frizzled CRD
Parameters: key: −: no binding; +: very weak binder; ++: weak binder; +++: good binder; ++++: very good binder
Measure name: Immunofluorescence binding, Frizzled CRD overexpressed on CHO cells: FZD4

Molecule	Reported measurement
Fab-2936: anti-FZD5 Fab with antibody variable region Fv-2936; CDR SEQ ID NOs: 35, 36, 75, 112, 151, 179 (antibody, V domains shown) VH: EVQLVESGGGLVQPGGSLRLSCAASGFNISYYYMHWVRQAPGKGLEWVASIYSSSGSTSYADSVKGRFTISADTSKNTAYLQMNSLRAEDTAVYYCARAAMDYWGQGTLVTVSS VL: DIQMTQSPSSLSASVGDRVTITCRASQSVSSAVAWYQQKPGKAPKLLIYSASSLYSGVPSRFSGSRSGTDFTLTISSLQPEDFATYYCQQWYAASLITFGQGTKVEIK	−
Fab-2920: anti-FZD5 Fab with antibody variable region Fv-2920; CDR SEQ ID NOs: 35, 36, 59, 98, 135, 170 (antibody, V domains shown) VH: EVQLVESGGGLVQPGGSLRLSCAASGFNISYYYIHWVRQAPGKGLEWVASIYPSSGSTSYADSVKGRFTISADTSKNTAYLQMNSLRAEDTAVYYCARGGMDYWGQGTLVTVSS VL: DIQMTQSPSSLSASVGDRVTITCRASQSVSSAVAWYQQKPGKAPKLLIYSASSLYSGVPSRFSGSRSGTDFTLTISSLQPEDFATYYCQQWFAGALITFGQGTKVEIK	−
